Ref: paper PMC3925373

Below, each of the compounds is paired with its reported pIC50 value.
Biological target: Bacillus anthracis lethal factor (Bacillus anthracis)
Sequence (P15917 34-809 limits assumed): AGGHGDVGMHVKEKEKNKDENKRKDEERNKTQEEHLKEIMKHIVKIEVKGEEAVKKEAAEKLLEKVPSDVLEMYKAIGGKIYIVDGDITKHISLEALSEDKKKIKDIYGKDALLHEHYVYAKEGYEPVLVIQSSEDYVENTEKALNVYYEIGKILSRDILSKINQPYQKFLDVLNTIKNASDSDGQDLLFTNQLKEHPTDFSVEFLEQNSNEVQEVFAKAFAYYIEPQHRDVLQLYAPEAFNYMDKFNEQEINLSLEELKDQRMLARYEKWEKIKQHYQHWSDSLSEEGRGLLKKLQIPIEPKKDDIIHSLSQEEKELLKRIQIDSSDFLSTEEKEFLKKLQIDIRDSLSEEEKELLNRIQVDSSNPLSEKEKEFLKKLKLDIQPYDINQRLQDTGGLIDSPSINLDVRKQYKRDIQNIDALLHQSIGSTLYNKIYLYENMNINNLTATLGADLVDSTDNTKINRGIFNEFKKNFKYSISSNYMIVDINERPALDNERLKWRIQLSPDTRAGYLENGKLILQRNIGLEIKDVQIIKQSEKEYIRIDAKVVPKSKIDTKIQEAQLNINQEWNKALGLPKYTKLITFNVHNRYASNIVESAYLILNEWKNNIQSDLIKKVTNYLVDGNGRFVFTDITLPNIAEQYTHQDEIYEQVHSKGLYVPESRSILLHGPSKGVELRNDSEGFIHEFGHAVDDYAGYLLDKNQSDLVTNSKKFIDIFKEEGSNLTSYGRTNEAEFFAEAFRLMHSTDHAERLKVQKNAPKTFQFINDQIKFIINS
Assay: biochemical
Assay type: biochemical
pIC50: −log10 of the molar value.

| compound | pIC50 |
| --- | --- |
| COc1cc(-c2cccnc2)ccc1CCC(=O)Nc1ccc2nc(C)cc(N)c2c1 | 4.26 |
| Cc1cc(N)c2cc(NC(=O)Nc3ccc4c(c3)OCO4)ccc2n1 [Compound 20a] | 4.06 |

###

Target: Human matrix metalloprotease-1 (Homo sapiens, UniProt P03956)
Sequence (P03956 100-469): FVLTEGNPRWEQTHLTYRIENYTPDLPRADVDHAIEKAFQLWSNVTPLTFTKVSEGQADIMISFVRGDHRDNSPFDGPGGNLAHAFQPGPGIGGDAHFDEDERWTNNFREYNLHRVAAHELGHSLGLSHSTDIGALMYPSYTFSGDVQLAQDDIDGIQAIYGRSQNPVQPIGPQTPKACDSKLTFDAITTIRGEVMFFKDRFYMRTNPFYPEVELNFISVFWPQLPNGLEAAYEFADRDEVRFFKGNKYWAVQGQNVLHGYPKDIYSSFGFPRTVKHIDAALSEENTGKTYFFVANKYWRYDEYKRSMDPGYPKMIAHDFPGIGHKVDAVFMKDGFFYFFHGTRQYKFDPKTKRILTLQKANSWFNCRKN
pIC50: −log10 of the molar value.
recorded_metric: pIC50

| molecule | readout_value |
| --- | --- |
| Cc1cc(N)c2cc(NC(=O)Nc3ccc4nc(C)cc(N)c4c3)ccc2n1 [Compound 1] | < 4.00 |

###

Molecular target: BoNT/A LC (Clostridium botulinum)
Sequence (P0DPI0 2-448 limits assumed): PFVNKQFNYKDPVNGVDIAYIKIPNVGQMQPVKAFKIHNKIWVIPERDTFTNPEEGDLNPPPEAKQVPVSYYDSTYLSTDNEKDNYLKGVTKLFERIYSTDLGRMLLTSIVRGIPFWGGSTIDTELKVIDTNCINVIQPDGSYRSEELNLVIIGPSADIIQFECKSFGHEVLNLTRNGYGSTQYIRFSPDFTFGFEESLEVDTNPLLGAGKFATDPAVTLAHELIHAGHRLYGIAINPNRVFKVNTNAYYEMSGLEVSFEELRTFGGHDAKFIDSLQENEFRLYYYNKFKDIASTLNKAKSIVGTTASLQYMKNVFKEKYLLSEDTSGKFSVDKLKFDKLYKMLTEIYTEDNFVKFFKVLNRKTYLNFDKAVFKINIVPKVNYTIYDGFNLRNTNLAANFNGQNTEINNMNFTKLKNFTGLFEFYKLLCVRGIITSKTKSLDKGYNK
Experiment: biochemical
Assay type: biochemical, Clostridium bolulinum
recorded_metric: IC50 (µM)

| molecule | recorded_metric | readout_value |
| --- | --- | --- |
| Cc1cc(N)c2cc(NC(=O)Nc3ccc4c(c3)OCO4)ccc2n1 [Compound 20a] | IC50 | 51 |
